# inhibition listing for each entry below
Biological target: ROCK2 (human) (UniProt O75116)
Sequence (O75116 whole entry, looked up): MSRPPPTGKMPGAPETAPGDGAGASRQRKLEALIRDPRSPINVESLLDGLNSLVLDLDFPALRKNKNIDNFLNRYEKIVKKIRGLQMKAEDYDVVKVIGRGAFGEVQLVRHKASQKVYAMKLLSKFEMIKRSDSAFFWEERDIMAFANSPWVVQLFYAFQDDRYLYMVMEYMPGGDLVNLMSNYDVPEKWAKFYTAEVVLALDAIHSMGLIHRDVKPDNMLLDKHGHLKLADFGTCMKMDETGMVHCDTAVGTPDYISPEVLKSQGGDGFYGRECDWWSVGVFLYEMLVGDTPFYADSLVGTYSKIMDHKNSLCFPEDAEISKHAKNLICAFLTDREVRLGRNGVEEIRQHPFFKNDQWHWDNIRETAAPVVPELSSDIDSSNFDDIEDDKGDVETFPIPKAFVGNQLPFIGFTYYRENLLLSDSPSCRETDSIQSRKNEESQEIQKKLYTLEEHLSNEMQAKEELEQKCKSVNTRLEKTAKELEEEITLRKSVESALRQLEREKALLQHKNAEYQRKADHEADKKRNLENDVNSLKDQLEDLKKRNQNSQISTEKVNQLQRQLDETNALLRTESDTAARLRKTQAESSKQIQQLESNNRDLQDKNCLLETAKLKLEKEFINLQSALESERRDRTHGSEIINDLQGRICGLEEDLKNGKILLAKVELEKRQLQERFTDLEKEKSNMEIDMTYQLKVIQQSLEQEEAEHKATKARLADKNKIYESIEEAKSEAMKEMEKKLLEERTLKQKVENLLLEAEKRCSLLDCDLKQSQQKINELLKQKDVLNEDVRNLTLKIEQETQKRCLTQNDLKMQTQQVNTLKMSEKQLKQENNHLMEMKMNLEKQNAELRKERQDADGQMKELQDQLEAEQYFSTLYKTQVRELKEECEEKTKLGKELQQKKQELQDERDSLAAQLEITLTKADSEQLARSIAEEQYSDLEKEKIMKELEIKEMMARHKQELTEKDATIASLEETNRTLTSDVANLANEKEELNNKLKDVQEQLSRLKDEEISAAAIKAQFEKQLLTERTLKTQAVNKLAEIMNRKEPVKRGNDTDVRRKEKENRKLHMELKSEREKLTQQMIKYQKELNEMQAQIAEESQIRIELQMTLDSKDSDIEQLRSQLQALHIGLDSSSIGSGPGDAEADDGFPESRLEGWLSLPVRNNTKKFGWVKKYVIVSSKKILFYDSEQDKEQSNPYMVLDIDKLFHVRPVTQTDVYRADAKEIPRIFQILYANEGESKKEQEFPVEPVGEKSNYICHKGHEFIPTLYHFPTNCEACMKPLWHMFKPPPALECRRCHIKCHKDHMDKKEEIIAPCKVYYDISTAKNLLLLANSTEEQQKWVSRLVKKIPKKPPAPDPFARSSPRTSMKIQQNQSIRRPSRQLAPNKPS
Experiment: Inhibition of ROCK2 Kinase Activity
Settings: concentration not given here
Number in %, nothing else.

# annotated cases, reported inhibition shown
compound	readout-unit	inhibition
C=CC[C@@H](N)[C@H]1CC[C@H](C(=O)Nc2ccncc2)CC1	%	81
C=CCC(NCc1ccccc1)[C@H]1CC[C@H](C(=O)Nc2ccncc2)CC1 (some centres undefined)	%	44
NN(Cc1ccc(OCc2ccccc2)cc1)[C@H]1CC[C@H](C(=O)Nc2ccncc2)CC1	%	59

Now look at this one.
[Q] Recorded inhibition of CC(C)N(N)[C@H]1CC[C@@H](C(=O)Nc2ccncc2)CC1 , please.
[A] 25
